Overview of reported Test R disease control rating across a group of compounds:
System: Plasmopara viticola
Test Details: Test R: grape downy mildew, preventive spray on grape seedlings
Assay type: in vivo
Condition Set: 100 ppm (100 g/ha, 1000 L/ha), inoculated the following day, 100 = 100% disease control, 0 = no control relative to controls
# output: bare number, implied unit %

Consider the worked cases shown below.
Compound	Tested System	Test R disease control rating / %
COCC(C)Nc1nccc(-c2ncnc(Nc3cccc(Cl)c3)n2)n1 (stereo not shown) [Compound 1]	Plasmopara viticola	26
Clc1cccc(Cl)c1Nc1cc(-c2ccnc(NC3CCOCC3)n2)ccn1 [Compound 81]	Plasmopara viticola	97
COC[C@H](C)Nc1nccc(-c2ncnc(Nc3cccc(Cl)c3)n2)n1 [Compound 16]	Plasmopara viticola	40
COC[C@H](C)Nc1nccc(-c2ncnc(Nc3cccc([N+](=O)[O-])c3)n2)n1 [Compound 21]	Plasmopara viticola	79
COC[C@H](C)Nc1nccc(-c2ncnc(Nc3cccc(C#N)c3)n2)n1 [Compound 18]	Plasmopara viticola	86

Tell me its Test R disease control rating given COC[C@H](C)Nc1nccc(-c2ncnc(Nc3ccc(C)c([N+](=O)[O-])c3)n2)n1 [Compound 26] as the entry. 96

Tell me its Test R disease control rating given Cc1cc(C)c(Nc2cc(-c3ccnc(NC4CCOCC4)n3)ccn2)c(Cl)c1 [Compound 90] as the entry. 98
